experimental.system: VLA-4 (Homo sapiens, UniProt P05556+P13612)
Sequence (P13612 34-1032): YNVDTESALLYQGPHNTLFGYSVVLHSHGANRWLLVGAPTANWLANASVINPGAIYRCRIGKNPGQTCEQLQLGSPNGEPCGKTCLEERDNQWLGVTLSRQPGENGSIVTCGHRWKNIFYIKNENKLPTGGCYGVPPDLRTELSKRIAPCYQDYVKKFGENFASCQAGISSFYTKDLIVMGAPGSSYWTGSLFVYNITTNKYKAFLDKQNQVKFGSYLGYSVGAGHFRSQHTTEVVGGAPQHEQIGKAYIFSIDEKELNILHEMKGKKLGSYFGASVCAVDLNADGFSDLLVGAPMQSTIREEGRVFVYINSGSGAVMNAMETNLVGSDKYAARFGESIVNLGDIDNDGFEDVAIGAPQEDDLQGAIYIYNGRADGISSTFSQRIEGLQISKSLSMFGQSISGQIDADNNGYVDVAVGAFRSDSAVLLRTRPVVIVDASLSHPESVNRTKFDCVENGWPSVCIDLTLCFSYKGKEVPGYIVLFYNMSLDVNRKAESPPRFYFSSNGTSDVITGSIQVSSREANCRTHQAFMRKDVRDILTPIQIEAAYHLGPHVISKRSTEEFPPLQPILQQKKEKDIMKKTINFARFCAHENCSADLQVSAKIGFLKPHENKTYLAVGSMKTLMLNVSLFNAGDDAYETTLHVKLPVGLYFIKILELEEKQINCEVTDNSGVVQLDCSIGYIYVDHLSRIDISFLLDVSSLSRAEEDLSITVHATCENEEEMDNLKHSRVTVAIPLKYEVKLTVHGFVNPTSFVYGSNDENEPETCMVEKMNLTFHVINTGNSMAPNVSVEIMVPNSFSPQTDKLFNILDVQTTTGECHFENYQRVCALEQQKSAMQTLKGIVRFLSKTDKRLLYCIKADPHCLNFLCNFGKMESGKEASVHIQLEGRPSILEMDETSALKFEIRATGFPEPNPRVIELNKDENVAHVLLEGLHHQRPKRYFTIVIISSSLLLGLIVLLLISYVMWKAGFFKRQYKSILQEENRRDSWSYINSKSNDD
Sequence (P05556 21-798): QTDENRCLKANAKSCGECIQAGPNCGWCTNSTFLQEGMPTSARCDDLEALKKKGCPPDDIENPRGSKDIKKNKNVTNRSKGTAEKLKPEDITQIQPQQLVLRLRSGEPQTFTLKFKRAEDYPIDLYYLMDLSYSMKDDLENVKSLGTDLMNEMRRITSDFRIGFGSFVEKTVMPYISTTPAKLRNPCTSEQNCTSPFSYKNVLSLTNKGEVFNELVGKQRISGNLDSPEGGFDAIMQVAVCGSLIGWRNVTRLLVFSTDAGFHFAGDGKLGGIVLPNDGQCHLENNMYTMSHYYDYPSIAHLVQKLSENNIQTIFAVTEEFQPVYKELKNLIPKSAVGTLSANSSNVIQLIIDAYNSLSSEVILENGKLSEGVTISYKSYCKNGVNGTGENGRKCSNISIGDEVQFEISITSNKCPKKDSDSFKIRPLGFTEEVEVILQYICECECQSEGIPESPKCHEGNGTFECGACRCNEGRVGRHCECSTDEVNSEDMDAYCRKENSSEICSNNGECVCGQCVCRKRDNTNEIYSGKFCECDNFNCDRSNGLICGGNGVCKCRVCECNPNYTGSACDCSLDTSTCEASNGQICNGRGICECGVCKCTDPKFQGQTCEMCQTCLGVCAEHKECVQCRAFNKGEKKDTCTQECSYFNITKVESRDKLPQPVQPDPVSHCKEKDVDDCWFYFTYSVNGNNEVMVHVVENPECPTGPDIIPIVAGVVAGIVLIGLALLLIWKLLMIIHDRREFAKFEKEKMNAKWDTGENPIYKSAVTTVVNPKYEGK
method.notes: In vitro binding inhibition of 51Cr-labeled Jurkat cells to solid phase-bound CS-1 compound (SEQ ID NO:1)
Format: cell-based
Parameters: inflammatory cells that contain the VLA-4 receptor [Jurkat cells; host or cells: Jurkat (human T lymphoblastic line)
test.settings: binding inhibition potency relative to standard compound of SEQ ID NO:3 = 1 (normalized IC50); about one-tenth or less assigned zero
Protocol: Binding inhibition is measured here as a concentration of compound that inhibits one-half the binding between a standard number of Jurkat cells and a standard amount of CS-1 compound bound to the surface of a microtiter plate well. Those concentrations are conveniently expressed as IC50 values, smaller numbers indicating a lower concentration required to inhibit 50 percent binding and therefore greater potency. Further specifics of this assay are provided hereinafter. […]
Square brackets hold non-standard residues; d marks the D form. Peptide text beside a SMILES is read from it. * marks the point of attachment. ξ: configuration not given here. ξAtc = NC1(C(=O)O)CCc2ccccc2C1; PhAc = O=C(Cc1ccccc1)*; OtBu = CC(C)(C)O*; tBu = CC(C)(C)*
Would you please tag the item true when its Relative Potency is 30 or above, and false when it is below?

Recorded results for 4 compounds are shown here.
>>> class_label("CC(C)C[C@H](NC(=O)Cc1ccccc1)C(=O)N[C@@H](CC(=O)O)C(=O)N[C@@H](Cc1ccccc1)C(=O)NCCCO")
"false"
>>> class_label("CC(C)C[C@H](NC(=O)Cc1ccccc1)C(=O)N[C@@H](CC(=O)O)C(=O)NC1(C(=O)N2CCC[C@@H]2C(N)=O)CCc2ccccc2C1 (stereo partly drawn) [896.65] (PhAc-LD[ξAtc][dP]-NH2)")
"false"
>>> class_label("COc1ccccc1N1CC[C@H](NC(=O)[C@H](CC(=O)O)NC(=O)[C@H](CC(C)C)NC(=O)Cc2ccccc2)C1=O")
"false"
>>> class_label("CC(C)C[C@H](NC(=O)Cc1ccccc1)C(=O)N[C@@H](CC(=O)O)C(=O)N[C@@H](Cc1ccc(OC(C)(C)C)cc1)C(=O)OC(C)(C)C [1040.01] (PhAc-Leu-Asp-Tyr(tBu)-OtBu)")
"false"

Does CC(C)C[C@H](NC(=O)Cc1ccccc1)C(=O)N[C@@H](CC(=O)O)C(=O)NC(c1ccccc1)c1ccccc1 have a reported Relative Potency of at least 30?
false

Does CC(C)C[C@H](NC(=O)Cc1ccccc1)C(=O)N[C@@H](CC(=O)O)C(=O)N[C@@H](Cc1ccc(O)cc1)C(=O)N1CCC[C@H]1C(N)=O [1036.01] (PhAc-LDYP-NH2) have a reported Relative Potency of at least 30?
true

Does CC(C)C[C@H](NC(=O)Cc1ccccc1)C(=O)N[C@@H](CC(=O)O)C(=O)N[C@@H](Cc1ccc(O)cc1)C(=O)N1CCC[C@@H]1C(N)=O [896.61] (PhAc-LDY[dP]-NH2) have a reported Relative Potency of at least 30?
true

###

experimental.system: VLA-4 (Homo sapiens, UniProt P05556+P13612)
method.notes: In vitro binding inhibition of 51Cr-labeled Jurkat cells to solid phase-bound CS-1 compound (SEQ ID NO:1)
Type: cell-based
Parameters: inflammatory cells that contain the VLA-4 receptor [Jurkat cells; host or cells: Jurkat (human T lymphoblastic line)
Square brackets hold non-standard residues; d marks the D form. Peptide text beside a SMILES is read from it. * marks the point of attachment. NMeL = CN[C@@H](CC(C)C)C(=O)O; Nicotinoyl = O=C(c1cccnc1)*
Provide the recorded Relative Potency for the entries that follow.

Examples from the recorded data:
>>> test_result("CC(C)C[C@H](NC(=O)c1cccnc1)C(=O)N[C@@H](CC(=O)O)C(=O)N[C@@H](Cc1ccccc1)C(=O)N1CCC[C@@H]1C(N)=O [896.55] (Nicotinoyl-LDF[dP]-NH2)")
105
>>> test_result("CC(=O)[C@H]1C[C@@H](CC(=O)N[C@@H](CC(=O)O)C(=O)N[C@@H](Cc2ccccc2)C(=O)N2CCC[C@@H]2C(N)=O)C1(C)C")
0

// below: Relative Potency requested for another molecule
Would you mind telling me what Relative Potency value was observed for CC[C@H](C)[C@H](N)C(=O)N(C)[C@@H](CC(C)C)C(=O)N[C@@H](CC(=O)O)C(=O)N[C@H](C(=O)N1CCC[C@H]1C(N)=O)C(C)C [926.11] (H-I[NMeL]DVP-NH2) ?
.06
